Attribution: patent US20210155689A1

# TEST TARGET: T1, human LAG-3 on cells (HEK293-hLAG-3 stable cell line) (human, UniProt P18627 23-525)
# T1 sequence: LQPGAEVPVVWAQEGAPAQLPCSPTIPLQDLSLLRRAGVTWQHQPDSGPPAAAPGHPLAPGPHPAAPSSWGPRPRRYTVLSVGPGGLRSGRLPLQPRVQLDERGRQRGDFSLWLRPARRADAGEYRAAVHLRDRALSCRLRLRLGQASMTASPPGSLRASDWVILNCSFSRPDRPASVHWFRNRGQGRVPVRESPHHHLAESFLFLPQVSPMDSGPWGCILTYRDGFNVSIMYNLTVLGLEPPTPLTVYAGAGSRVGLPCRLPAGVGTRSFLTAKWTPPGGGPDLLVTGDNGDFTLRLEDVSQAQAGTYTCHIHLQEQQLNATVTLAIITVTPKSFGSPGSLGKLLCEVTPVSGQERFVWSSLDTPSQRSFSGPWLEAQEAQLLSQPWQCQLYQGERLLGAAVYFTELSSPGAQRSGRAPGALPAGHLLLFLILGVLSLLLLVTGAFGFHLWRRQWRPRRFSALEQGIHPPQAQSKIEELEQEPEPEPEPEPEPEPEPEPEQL
# MEASUREMENT DESCRIPTION: FACS, HEK293-hLAG-3, antibody 8 nM
Form field: Mean fluorescence intensity (one value per entry).
Enter the number alone.

Answered cases to consult:
| BINDER | Mean fluorescence intensity |
| --- | --- |
| 405B8H3-9 humanized antibody (antibody, V domains shown) VH: QVQLVQSGAEVKKPGASVKVSCKASGYTFTDYEMHWVRQAPGQGLEWMGATDPETGNSAYNQKFKGRVTMTRDTSTSTVYMELSSLRSEDTAVYYCISTGWNDWGQGTTVTVSS VL: DIKMTQSPSSLSASVGDRVTITCKASQDINSYLSWFQQKPGKSPKSLIYRADRLLDGVPSRFSGSGSGQDYTLTISSLQPEDFATYYCLQYDEFPYTFGQGTKLEIK | 246 |
| 405B8H3 mouse-human chimeric antibody (antibody, V domains shown, also called mAb103-405B8H3) VH: QVQLQQSGAELVRPGASVTLSCKASGYTFTDYEMHWVKQTPVHGLEWIGATDPETGNSAYNQKFKGKAIMTADKSSSTAYMELRSLTSEDSAVYYCISTGWNDWGQGTSLTVSS VL: DIKMTQSPSSMYASLGERVTITCKASQDINSYLSWFQQKPGKSPKTLIYRADRLLDGVPSRFSGSGSGQDYSLTISSLEYGDMGIYYCLQYDEFPYTFGGGTKLEIK | 226 |

Please look at the following binder next.
[Q] Look at this binder and give its reported Mean fluorescence intensity. 405B8H3-6 humanized antibody (antibody, V domains shown) VH: QVQLVQSGAEVKKPGASVKVSCKASGYTFTDYEMHWVRQAPGQGLEWMGATDPETGNSAYNQKFKGRVTMTADKSTSTVYMELSSLRSEDTAVYYCISTGWNDWGQGTTVTVSS VL: DIQMTQSPSSLSASVGDRVTITCKASQDINSYLSWFQQKPGKAPKSLIYRADRLLDGVPSRFSGSGSGQDYTLTISSLQPEDFATYYCLQYDEFPYTFGQGTKLEIK
[A] 242
